assay: Octanol/PBS buffer distribution coefficient, logD of the compound at pH 7.5 by LC-MS analysis; assay type: physicochemical
measured_quantity: logD

line_notation: CC(C)(C#N)c1ccc(C(=O)Nc2nc(-c3ccc4ccccc4c3)cs2)cc1
logD: > 3.85

line_notation: CSc1ncccc1C(=O)Nc1nc(-c2ccc3ncccc3c2)cs1
logD: 3.8

line_notation: CSc1ncccc1C(=O)Nc1nc(-c2cccc(-c3ccc(C#N)cn3)c2)cs1
logD: > 3.97

line_notation: CCOC(=O)N1CCN(c2cc(-c3ccc(C#N)cc3)cc(-c3csc(NC(=O)c4cccnc4SC)n3)c2)CC1
logD: > 3.99

line_notation: CSc1ncccc1C(=O)Nc1nc(-c2cc(-c3ccc(C#N)cc3)ccc2F)cs1
logD: 2

line_notation: CSc1ncccc1C(=O)Nc1nc(-c2cc(F)cc(-c3ccc(C#N)cc3)c2)cs1
logD: > 4.09

line_notation: CSc1ncccc1C(=O)Nc1nc(-c2cccc(Nc3ccc(C#N)cc3)c2)cs1
logD: > 4.04

line_notation: CSc1ncccc1C(=O)Nc1nc(-c2cccc(-c3ccc(C#N)c(O)c3)c2)cs1
logD: > 3.91

line_notation: CC(C)(C(=O)O)c1ccc(C(=O)Nc2nc(-c3ccc4ccccc4c3)cs2)cc1
logD: 2.1

line_notation: CSc1ncccc1C(=O)Nc1nc(-c2cccc(N3CCNCC3)c2)cs1
logD: 1.8

# per-item lookup of logD; items listed below
1. COc1cc(Nc2cccc(-c3csc(NC(=O)c4cccnc4SC)n3)c2)ccc1C#N
2. CSc1ncccc1C(=O)Nc1nc(-c2cc(C(=O)O)cc(-c3ccc(C#N)cc3)c2)cs1

Output line:
> 4.33
1.9

# per-item lookup of logD; items listed below
1. CSc1ncccc1C(=O)Nc1nc(-c2cccc(-c3ccc(C#N)cc3)c2)cs1
2. CC(C)(C)c1ccc(C(=O)Nc2nc(-c3ccc4ccccc4c3)cs2)cc1
3. CSc1ncccc1C(=O)Nc1nc(-c2cccc(-c3cccc(C#N)c3)c2)cs1

Output line:
1. > 4.66
2. > 3.32
3. 3

# per-item lookup of logD; items listed below
1. O=C(Nc1nc(-c2ccc3ccccc3c2)cs1)c1cc(F)c(O)c(F)c1
2. CSc1ncccc1C(=O)Nc1nc(-c2cc(Nc3ccc(C#N)cc3)cc(N3CCOCC3)c2)cs1
3. Cc1ncccc1C(=O)Nc1nc(-c2ccc3ccccc3c2)cs1

Output line:
1. > 3.45
2. > 3.92
3. > 4.27

---

experiment: AUC in C57BL/6 mouse at 1 mg/kg, iv; type: ADME, organism-based; conditions: in vivo
measured_quantity: AUC (µg·h/mL)
One number for each entry, in µg·h/mL.

Input line: Please look up its AUC: CSc1ncccc1C(=O)Nc1nc(-c2cccc(Nc3ccc(C#N)cc3)c2)cs1
Output line: 0.821

---

assay: Oral bioavailability in C57BL/6 mouse at 40 mg/kg; assay type: ADME, organism-based; settings: in vivo
measured_quantity: bioavailability (%)
Give bare numbers, in %.

Input line: Please look up its bioavailability: CSc1ncccc1C(=O)Nc1nc(-c2cccc(Nc3ccc(C#N)cc3)c2)cs1
Output line: 45

---

Would you mind telling me the reported half-life of each entry?
assay: Half life of the compound in human liver microsomes in presence of NADPH by LC-MS/MS analysis; format: ADME, Microsome
Numbers only, in min.

line_notation: CSc1ncccc1C(=O)Nc1nc(-c2cc(F)cc(-c3ccc(C#N)cc3)c2)cs1
half-life [min]: 53

# per-item lookup of half-life; items listed below
1. CSc1ncccc1C(=O)Nc1nc(-c2cccc(-c3cccc(C#N)c3)c2)cs1
2. CSc1ncccc1C(=O)Nc1nc(-c2cccc(Nc3ccc(C#N)cn3)c2)cs1
3. CC(C)(C#N)c1ccc(C(=O)Nc2nc(-c3ccc4ccccc4c3)cs2)cc1
4. Cc1ncccc1C(=O)Nc1nc(-c2ccc3ccccc3c2)cs1
5. CSc1ncccc1C(=O)Nc1nc(-c2cccc(-c3ccc(C#N)cc3)c2)cs1

Output line:
[21, 19, 98, 26, 39]

Input line: Please look up its half-life: CSc1ncccc1C(=O)Nc1nc(-c2cccc(-c3ccccn3)c2)cs1
Output line: 15
